Target: T1, huIL-18Rβ-HisAvi (human, UniProt O95256 20-356, biotinylated in the Octet blocking assay)
T1 construct: Soluble analyte in all SPR runs; captured on streptavidin sensors in the Octet assay; also called human IL-18Rβ; human IL-18Rβ-Avi-His
T1 sequence: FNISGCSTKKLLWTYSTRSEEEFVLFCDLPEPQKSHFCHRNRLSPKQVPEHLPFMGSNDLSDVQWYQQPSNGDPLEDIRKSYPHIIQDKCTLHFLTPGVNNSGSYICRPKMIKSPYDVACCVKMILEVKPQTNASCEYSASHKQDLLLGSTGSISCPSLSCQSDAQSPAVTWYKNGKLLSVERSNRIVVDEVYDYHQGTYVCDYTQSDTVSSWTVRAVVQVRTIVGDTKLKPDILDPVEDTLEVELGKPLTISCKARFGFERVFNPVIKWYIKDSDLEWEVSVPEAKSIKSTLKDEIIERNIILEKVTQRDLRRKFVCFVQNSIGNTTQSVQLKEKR
Assay: SPR T200, mAb on anti-hFc, 37C, pH 6
observable: kon (M⁻¹ s⁻¹)
One number for each entry, in M⁻¹ s⁻¹.

Given the binder P20-V3 (antibody, human IgG1, kappa, V domains shown, Variant of P20) VH: QVQLQESGPGLVKPSETLSLTCTVSGGSINNYYWSWIRQPPGKGLEWIGYIFYSGTTNYNPSLKSRVTISVDTSKNQFSLKLSSVTAADTAVYYCARDVGIAARNSYYYVMDVWGQGTTVTVSS VL: AIQLTQSPSSLSASVGDRVTITCRASQGISSALAWYQQKPGKAPKFLIYGASSLESGVPSRFSGSGSGTDFTLTISSLQPEDFATYYCQQFNSYPITFGQGTRLEIKR , what is its reported kon?
390000

Data credit: patent US20250230251A1
